- Target of assay: c-Met kinase (recombinant c-Met) (Homo sapiens)
- Construct: 0.27 nM recombinant c-Met
- Sequence (P08581 25-1390): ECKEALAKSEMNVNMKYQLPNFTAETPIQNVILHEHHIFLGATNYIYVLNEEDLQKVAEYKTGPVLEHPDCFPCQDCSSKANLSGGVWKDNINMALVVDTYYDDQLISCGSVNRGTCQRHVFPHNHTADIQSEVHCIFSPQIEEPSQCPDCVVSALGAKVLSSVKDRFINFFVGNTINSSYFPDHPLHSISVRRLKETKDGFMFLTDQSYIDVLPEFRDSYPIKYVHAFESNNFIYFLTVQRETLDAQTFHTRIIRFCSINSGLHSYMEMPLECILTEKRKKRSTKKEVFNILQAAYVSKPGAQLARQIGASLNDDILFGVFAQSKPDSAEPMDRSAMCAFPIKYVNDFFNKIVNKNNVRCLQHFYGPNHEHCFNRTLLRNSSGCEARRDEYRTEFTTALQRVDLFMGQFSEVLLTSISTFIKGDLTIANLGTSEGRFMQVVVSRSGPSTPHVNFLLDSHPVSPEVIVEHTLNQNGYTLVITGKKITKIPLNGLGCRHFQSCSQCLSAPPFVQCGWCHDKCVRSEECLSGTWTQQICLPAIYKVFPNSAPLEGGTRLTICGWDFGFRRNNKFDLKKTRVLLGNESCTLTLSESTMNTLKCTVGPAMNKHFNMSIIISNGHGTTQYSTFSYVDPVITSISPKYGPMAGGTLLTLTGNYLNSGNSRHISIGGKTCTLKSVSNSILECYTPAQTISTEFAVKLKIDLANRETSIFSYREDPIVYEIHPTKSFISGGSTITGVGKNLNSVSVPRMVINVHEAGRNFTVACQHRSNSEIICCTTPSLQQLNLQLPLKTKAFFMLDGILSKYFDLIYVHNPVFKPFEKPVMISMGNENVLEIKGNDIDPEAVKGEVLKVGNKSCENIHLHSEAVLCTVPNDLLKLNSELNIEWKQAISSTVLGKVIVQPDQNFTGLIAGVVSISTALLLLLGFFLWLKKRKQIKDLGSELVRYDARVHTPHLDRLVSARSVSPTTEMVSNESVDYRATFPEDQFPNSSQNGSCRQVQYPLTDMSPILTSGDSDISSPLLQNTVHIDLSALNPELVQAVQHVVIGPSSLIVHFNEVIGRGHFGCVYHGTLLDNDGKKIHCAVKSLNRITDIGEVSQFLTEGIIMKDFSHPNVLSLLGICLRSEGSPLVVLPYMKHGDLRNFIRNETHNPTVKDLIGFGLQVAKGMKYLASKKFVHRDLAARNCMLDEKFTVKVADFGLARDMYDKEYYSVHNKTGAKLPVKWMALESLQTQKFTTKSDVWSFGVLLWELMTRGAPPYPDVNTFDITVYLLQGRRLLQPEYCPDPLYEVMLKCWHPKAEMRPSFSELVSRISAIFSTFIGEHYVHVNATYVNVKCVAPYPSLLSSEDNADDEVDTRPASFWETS
- Test details: In vitro kinase assay I (homogeneous time-resolved fluorescence tyrosine kinase assay)
Result type: IC50

Example cases with answers are listed next.
>>> measured_value("CNCc1cnc(-c2cccc(Cc3nn(-c4cnn(C)c4)ccc3=O)c2)nc1")
"100 to 1000 nM"
>>> measured_value("CC(C)Cn1cc(-n2ccc(=O)c(Cc3cccc(NC(=O)OCCN4CCOCC4)c3)n2)cn1")
"100 to 1000 nM"

// field: IC50; key: Cn1cc(-n2ccc(=O)c(Cc3cccc(-c4ncc(C5C=CCO5)cn4)c3)n2)cn1 (racemic) ; value = < 100 nM
